- test-target: KOP receptor (Homo sapiens, UniProt P41145)
- Sequence (P41145 whole entry): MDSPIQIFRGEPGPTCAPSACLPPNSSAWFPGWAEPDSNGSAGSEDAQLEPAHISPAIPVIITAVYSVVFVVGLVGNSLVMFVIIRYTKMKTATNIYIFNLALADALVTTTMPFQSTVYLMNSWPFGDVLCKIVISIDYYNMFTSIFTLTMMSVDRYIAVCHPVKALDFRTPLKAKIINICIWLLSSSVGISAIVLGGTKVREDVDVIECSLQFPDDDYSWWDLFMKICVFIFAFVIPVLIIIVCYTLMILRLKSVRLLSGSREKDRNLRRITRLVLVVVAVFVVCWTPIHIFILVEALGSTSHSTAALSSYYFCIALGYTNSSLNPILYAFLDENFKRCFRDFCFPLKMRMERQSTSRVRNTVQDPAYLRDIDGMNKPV
- test-details: cell-based
Where a SMILES comes first, the peptide text is derived from it. [ ]: non-standard residue; d: D form. Phe(4-NO2) = N[C@@H](Cc1ccc([N+](=O)[O-])cc1)C(=O)O; NMeR = CN[C@@H](CCCNC(=N)N)C(=O)O; Aoc = NCCCCCCCC(=O)O; Sar = CNCC(=O)O
The molecules listed here are annotated with their EC50.

molecule | EC50 (nM)
CC(C)C[C@H](NC(=O)[C@H](Cc1ccc([N+](=O)[O-])cc1)NC(=O)CN(C)C(=O)[C@@H](N)Cc1ccc(O)cc1)C(=O)N(C)[C@@H](CCCNC(=N)N)C(=O)N(C)[C@@H](CCCNC(=N)N)C(N)=O [KA311] (H-Y[Sar][Phe(4-NO2)]L[NMeR][NMeR]-NH2) | 31
CC(C)C[C@H](NC(=O)[C@H](Cc1ccc([N+](=O)[O-])cc1)NC(=O)CN(C)C(=O)[C@@H](N)Cc1ccc(O)cc1)C(=O)N[C@@H](CCCNC(=N)N)C(=O)N(C)[C@@H](CCCNC(=N)N)C(=O)NCCCCCCCC(N)=O [KA313] (H-Y[Sar][Phe(4-NO2)]LR[NMeR][Aoc]-NH2) | 4.45

###

compounds and their reported EC50
- test-target: KOP receptor (Homo sapiens)
- test-details: cell-based
Where a SMILES comes first, the peptide text is derived from it. [ ]: non-standard residue; d: D form. Phe(4-NO2) = N[C@@H](Cc1ccc([N+](=O)[O-])cc1)C(=O)O; Phe(4-Cl) = N[C@@H](Cc1ccc(Cl)cc1)C(=O)O; Phe(4-F) = N[C@@H](Cc1ccc(F)cc1)C(=O)O; NMeR = CN[C@@H](CCCNC(=N)N)C(=O)O; Sar = CNCC(=O)O

compound | EC50
C[C@@H](O)[C@H](NC(=O)[C@H](Cc1ccc(Cl)cc1)NC(=O)CN(C)C(=O)[C@@H](N)Cc1ccc(O)cc1)C(=O)N[C@@H](CCCNC(=N)N)C(=O)N[C@H](CCCNC(=N)N)C(N)=O [KA308] (H-Y[Sar][Phe(4-Cl)]TR[dR]-NH2) | 230 nM
CC(C)C[C@H](NC(=O)[C@H](Cc1ccc(F)cc1)NC(=O)CN(C)C(=O)[C@@H](N)Cc1ccc(O)cc1)C(=O)N(C)[C@@H](CCCNC(=N)N)C(=O)N[C@H](CCCNC(=N)N)C(N)=O [KA302] (H-Y[Sar][Phe(4-F)]L[NMeR][dR]-NH2) | 11.6 nM
CC(C)C[C@H](NC(=O)[C@H](Cc1ccc([N+](=O)[O-])cc1)NC(=O)CN(C)C(=O)[C@@H](N)Cc1ccc(O)cc1)C(=O)N(C)[C@@H](CCCNC(=N)N)C(=O)N[C@H](CCCNC(=N)N)C(N)=O [KA303] (H-Y[Sar][Phe(4-NO2)]L[NMeR][dR]-NH2) | 13.5 nM
CC(C)C[C@H](NC(=O)[C@H](Cc1ccc([N+](=O)[O-])cc1)NC(=O)CN(C)C(=O)[C@@H](N)Cc1ccc(O)cc1)C(=O)N[C@@H](CCCNC(=N)N)C(=O)N[C@H](CCCNC(=N)N)C(N)=O [KA204] (H-Y[Sar][Phe(4-NO2)]LR[dR]-NH2) | 7.5 nM
